biological target: HIV broadly neutralizing antibody 2G12; test: radiolabelled glycopeptide with 2G12 in solution, protein G bead capture, scintillation counting
Primed or numbered codes have the meaning given here. Where no end group is shown, it is not given here. [ ]: non-standard residue; d: D form. The star is where a group is joined. Hpra′ = its azide, alkyne or alkene has reacted where a group follows in round brackets; Man9(3) = Man9-azide click-glycosylated onto Hpg; For = O=C*
Readings of Fmax for the listed binders
Report only the number, with the unit % understood.

Known Fmax results, listed for orientation:
For-[Hpra′](Man9(3))[Hpra′](Man9(3))AALK[Hpra′](Man9(3))QVTD[Hpra′](Man9(3))YALALFHRILGSGSLGHHHHHHRDYKDDDDK [glycopeptide 10F2-Δ11] | 70
glycopeptide 10V1 (Variable library, round 10) (peptide) peptide: For-[Hpra′](Man9(3))ATKTNCKREKT[Hpra′](Man9(3))DNHVTI[Hpra′](Man9(3))RSIPWYTYRWLPNGSGSLGHHHHHHRDYKDDDDK | 97
glycopeptide 10V8 (Variable library, round 10) (peptide) peptide: For-[Hpra′](Man9(3))VLPTIISTNVNPFR[Hpra′](Man9(3))LSIPTYTYL[Hpra′](Man9(3))PITWGEIGSGSLGHHHHHHRDYKDDDDK | 94

Kindly review the next binder as well.
(Q) Fill blank: measured Fmax of the binder glycopeptide 10F9 (Fixed library, round 10) (peptide) peptide: For-[Hpra′](Man9(3))RSTLNSLEYR[Hpra′](Man9(3))QYATEDPRIR[Hpra′](Man9(3))ASIPYTYWWPGSGSLGHHHHHHRDYKDDDDK is ____.
(A) 86
